Listed next: entries and their corresponding inhibition at 1 µM.
# TARGET OR SYSTEM: YES1 (Homo sapiens, UniProt P07947)
# Sequence (P07947 whole entry): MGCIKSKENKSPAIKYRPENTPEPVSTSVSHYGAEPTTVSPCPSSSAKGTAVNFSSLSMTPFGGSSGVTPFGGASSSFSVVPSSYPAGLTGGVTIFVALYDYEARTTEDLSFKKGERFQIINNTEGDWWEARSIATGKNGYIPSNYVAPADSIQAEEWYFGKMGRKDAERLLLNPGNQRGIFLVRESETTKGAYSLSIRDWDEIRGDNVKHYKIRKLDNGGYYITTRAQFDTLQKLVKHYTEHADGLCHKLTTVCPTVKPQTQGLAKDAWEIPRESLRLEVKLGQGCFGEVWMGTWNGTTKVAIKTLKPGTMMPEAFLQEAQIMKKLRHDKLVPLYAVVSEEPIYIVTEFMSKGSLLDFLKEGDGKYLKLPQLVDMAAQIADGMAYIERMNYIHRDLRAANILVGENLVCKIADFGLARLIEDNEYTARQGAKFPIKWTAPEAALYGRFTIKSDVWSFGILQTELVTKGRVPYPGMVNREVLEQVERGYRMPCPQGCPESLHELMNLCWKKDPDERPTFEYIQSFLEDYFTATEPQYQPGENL
# ASSAY SUMMARY: Tyrosine kinase inhibition assay
# Type: biochemical
# TEST PARAMETERS: single concentration 1.0 μM, read-out: percent inhibition
For clarity, give the value followed by its unit.

# COMPOUND, TARGET OR SYSTEM, inhibition at 1 µM
rows = [
    ("COc1cc2nccc(Oc3ccc(NC(=O)C4(NC(=O)c5ccc(F)cc5)CC4)cc3F)c2cc1Oc1ccc(N)cc1F", "YES1 (Homo sapiens, UniProt P07947)", "64%"),
    ("COc1cc2nccc(Oc3ccc(NC(=O)C4(NC(=O)c5ccc(F)cc5)CC4)cc3F)c2cc1Oc1c(F)cc(N)cc1F", "YES1 (Homo sapiens, UniProt P07947)", "63%"),
    ("COc1cc2nccc(Oc3ccc(NC(=O)C4(C(=O)Nc5ccc(F)cc5)CC4)cc3)c2cc1OC [Cabozantinib, reference compound]", "YES1 (Homo sapiens, UniProt P07947)", "63%"),
]

query: Please report the recorded inhibition at 1 µM for COc1cc2nccc(Oc3ccc(NC(=O)C4(C(=O)Nc5ccc(F)cc5)CC4)cc3F)c2cc1Oc1ccc(N)cc1F .
result: 94%

query: Please report the recorded inhibition at 1 µM for COc1cc2nccc(Oc3ccc(NC(=O)C4(NC(=O)c5ccc(F)cc5)CC4)cc3F)c2cc1OC .
result: 34%
